Tested on: Yap1 mRNA
Experiment Notes: Antisense inhibition of human Yap1 in SNU-449 cells by modified oligonucleotides, single dose (Example 5, RTS36584)
Type: cell-based
Setup Conditions: Table 50; Yap1 mRNA remaining as percent of untreated control (UT), SNU-449 cells, single dose
Strand notation (5' to 3'): a small letter for the sugar, then the base; units joined by * are phosphorothioate-linked, units joined directly phosphodiester-linked; [ ] holds rarer units or linkages, { } end groups; capitals alone tell only the bases. e = 2'-O-(2-methoxyethyl) (MOE); k = constrained ethyl (cEt); [5mC] = 5-methylcytosine; d = 2'-deoxy (DNA)
Reported Property: YAP1 (% UT)
Please give a number only; it is taken to be in % UT.

1198607 (antisense kA*kT*kG*dT*dA*dA*dT*dA*dT*dT*dG*d[5mC]*kA*kA*kT*e[5mC]) [Compound 1198607]	77

Please find the next substance below.
Task: # YAP1 (% UT) lookup, item 1198600 (antisense kG*kA*k[5mC]*dA*dA*d[5mC]*dT*d[5mC]*dT*dT*dA*dT*kA*kT*kG*eG) [Compound 1198600]
Result: 72

---

Experiment Notes: Cynomolgus monkey tolerability, hematology (Example 34)
Type: in vivo, cynomolgus monkeys
Setup Conditions: cynomolgus monkey, in vivo, sc, 35 mg/kg
Below: a set of entries, each annotated with reported BAS.
Please give a number only; it is taken to be in %.

Past entries and their recorded results:
1198439 (AGTGTATGTCAGAAGA; sugar, 5-methylcytosine, phosphorothioate modifications, further chemistry not given here) [compound 1198439]	0.3
1198728 (TATTAGAGTATGTGGC; modified gapmer, further chemistry not given here) [compound 1198728]	0.5

Please find the next substance below.
Task: # BAS lookup, item 958499 (ATTAGAGTATGTGGCA; 3-10-3 cEt gapmer, further chemistry not given here) [compound 958499]
Result: 0.4

---

Test system: Yap1 mRNA
Experiment Notes: Antisense inhibition of human Yap1 in A-431 cells by cEt gapmers, single dose (Example 3, RTS36584)
Format: cell-based
Setup Conditions: Table 26; Yap1 mRNA by 3-10-3 cEt gapmers targeting SEQ ID NO.: 1, and 2; percent of untreated control
Strand notation (5' to 3'): a small letter for the sugar, then the base; units joined by * are phosphorothioate-linked, units joined directly phosphodiester-linked; [ ] holds rarer units or linkages, { } end groups; capitals alone tell only the bases. k = constrained ethyl (cEt); [5mC] = 5-methylcytosine; d = 2'-deoxy (DNA)
Reported Property: YAP1 (% UTC)
Please give a number only; it is taken to be in % UTC.

Past entries and their recorded results:
1076396 (antisense k[5mC]*kT*kA*dT*dA*dT*dT*dT*dG*dA*dG*d[5mC]*d[5mC]*kA*kT*kG) [compound 1076396]	2
1074444 (kA*k[5mC]*kA*dT*dT*dT*dT*dT*dG*dG*d[5mC]*dT*dT*kG*kT*k[5mC]; antisense) [compound 1074444]	3
1074828 (kA*kT*kA*dA*dA*dA*dT*d[5mC]*d[5mC]*dA*d[5mC]*d[5mC]*dT*kG*kA*kG; antisense) [compound 1074828]	58
1074860 (kA*kA*kA*dG*dG*dT*dA*dA*d[5mC]*dA*dT*dT*dG*kG*kT*kA; antisense) [compound 1074860]	9

Task: # YAP1 (% UTC) lookup, item 1075500 (kT*kA*kA*dA*dT*dT*dA*dA*dG*d[5mC]*d[5mC]*dA*dA*k[5mC]*kA*k[5mC]; antisense) [compound 1075500]
Result: 26

Task: # YAP1 (% UTC) lookup, item 1075788 (kT*k[5mC]*kT*dT*dA*dA*dG*dG*dA*dT*dT*dG*dG*k[5mC]*kT*kA; antisense) [compound 1075788]
Result: 15

---

Below: a set of entries, each annotated with reported IC50.
Test system: Yap1 mRNA
Experiment Notes: Dose-dependent inhibition of human Yap1 in SNU-449 cells (Example 9, RTS36584)
Format: cell-based
Setup Conditions: free uptake, linear regression on a log/linear plot
Method: Modified oligonucleotides described in the studies above were tested at various doses in SNU-449 cells. […] After approximately 48 hours, Yap1 mRNA levels were measured as previously described using the Human Yap1 primer-probe set RTS36584. Yap1 mRNA levels were normalized to total RNA content, as measured by RIBOGREEN®. […] IC50s were calculated using a linear regression on a log/linear plot of the data in excel.
Strand notation (5' to 3'): a small letter for the sugar, then the base; units joined by * are phosphorothioate-linked, units joined directly phosphodiester-linked; [ ] holds rarer units or linkages, { } end groups; capitals alone tell only the bases. e = 2'-O-(2-methoxyethyl) (MOE); k = constrained ethyl (cEt); [5mC] = 5-methylcytosine; d = 2'-deoxy (DNA)
Please give a number only; it is taken to be in nM.

1198935 (kG*kA*dT*dT*dT*dA*dG*dG*dA*dT*dG*k[5mC]*dA*kT*dG*kG; antisense) [compound 1198935]	40
1198527 (kA*kA*dA*dG*dT*dG*dT*dA*dT*dG*dT*e[5mC]*kA*eG*kA*eA; antisense) [compound 1198527]	100
1198613 (kA*kA*kA*dG*dT*dG*dT*dA*dT*dG*dT*d[5mC]*kA*kG*kA*eA; antisense) [compound 1198613]	100

Task: # value lookup — system Yap1 mRNA, readout IC50, item 1198507 (kT*kT*dA*dT*dA*dT*dG*dG*dT*dT*dT*eT*kG*eT*kG*eT; antisense) [compound 1198507]
Result: 200

---

Tested on: Yap1 mRNA
Experiment Notes: Antisense inhibition of human Yap1 in A-431 cells by cEt gapmers, single dose (Example 4, RTS4814)
Type: cell-based
Setup Conditions: Table 15; A-431 cells, 5,000 cells per well, free uptake, 2,000 nM, approximately 48 hours; RTS4814; normalized to RIBOGREEN; Yap1 mRNA relative to untreated control; * = targets amplicon region of primer probe set
Strand notation (5' to 3'): a small letter for the sugar, then the base; units joined by * are phosphorothioate-linked, units joined directly phosphodiester-linked; [ ] holds rarer units or linkages, { } end groups; capitals alone tell only the bases. k = constrained ethyl (cEt); [5mC] = 5-methylcytosine; d = 2'-deoxy (DNA)
Respond with true (1) for YAP1 (% UTC) values of 30 % UTC and above, false (0) for values below.

Example entries and their recorded answers appear below.
1074273 (antisense k[5mC]*kT*kT*dA*dT*dG*dG*dT*dT*dT*dA*dT*dA*kT*kA*kG) [Compound 1074273]	true (1)
1074145 (antisense kA*kA*kG*d[5mC]*dG*dG*d[5mC]*dG*dA*d[5mC]*dG*dG*d[5mC]*kT*kG*k[5mC]) [Compound 1074145]	true (1)
958499 (kA*kT*kT*dA*dG*dA*dG*dT*dA*dT*dG*dT*dG*kG*k[5mC]*kA) [Compound 958499]	false (0)
1075009 (antisense kA*kT*kA*dA*dT*d[5mC]*dG*dA*dA*d[5mC]*dA*dT*dT*kG*kT*kG) [Compound 1075009]	true (1)
1076545 (antisense kA*kA*k[5mC]*d[5mC]*dA*dA*d[5mC]*d[5mC]*dT*dT*d[5mC]*d[5mC]*d[5mC]*kT*kA*k[5mC]) [Compound 1076545]	true (1)
1075073 (antisense k[5mC]*kA*kT*dA*dA*dA*dA*dG*dT*dT*d[5mC]*d[5mC]*d[5mC]*k[5mC]*kA*kG) [Compound 1075073]	true (1)
1074625 (antisense kA*kT*kA*dA*dG*dG*dG*d[5mC]*dT*dT*dA*dT*dT*k[5mC]*kT*kA) [Compound 1074625]	true (1)
1075233 (antisense kG*kT*kA*dA*dT*dT*dT*dA*dT*d[5mC]*dA*dG*d[5mC]*k[5mC]*kA*kT) [Compound 1075233]	false (0)

Task: Has 1076385 (kA*kT*kA*dT*dA*dA*dG*dG*dG*dA*d[5mC]*dT*dT*kG*k[5mC]*kT; antisense) [Compound 1076385] a recorded YAP1 (% UTC) greater than or equal to 30 % UTC?
Result: true (1)

Task: Has 1075585 (kA*kA*kA*dT*dA*dA*dT*dT*dG*dA*d[5mC]*d[5mC]*dT*kA*kG*k[5mC]; antisense) [Compound 1075585] a recorded YAP1 (% UTC) greater than or equal to 30 % UTC?
Result: true (1)

Task: Has 1075457 (antisense kA*kG*kT*dA*dA*dT*dA*dT*dG*dT*dA*d[5mC]*dA*kT*kG*kG) [Compound 1075457] a recorded YAP1 (% UTC) greater than or equal to 30 % UTC?
Result: false (0)

Task: Has 1076033 (k[5mC]*kA*kT*dT*dA*dG*dT*dA*dG*dG*dT*dA*dT*kT*kT*k[5mC]; antisense) [Compound 1076033] a recorded YAP1 (% UTC) greater than or equal to 30 % UTC?
Result: false (0)
